Test system: BV-173
ASSAY_REMARKS: cell viability (% survival relative to DMSO control, bortezomib = 0%); higher = less cytotoxic
TEST_CONTEXT: 1 nM; 72 h
# cell viability values compiled below
The reply should contain only the number, in %.

Observe how each entry below is paired with its result.
CC(C)C[C@H](NC(=O)[C@@H](O)[C@H](N)Cc1ccccc1)C(=O)O :: 97.5
O=C(O)C(S)=Cc1c[nH]c2ccc(F)cc12 :: 97.4
C1CCC(C(CC2CCCCN2)C2CCCCC2)CC1.O=C(O)/C=C\C(=O)O (stereo not drawn) :: 87.1
CC(Cc1ccc(O)c(O)c1)C(C)Cc1ccc(O)c(O)c1 (stereo not drawn) :: 104
NC(=O)c1ncn([C@@H]2O[C@H](CO)[C@@H](O)[C@H]2O)n1 :: 93.7
COc1c(C)c2c(c(O)c1C/C=C(\C)CCC(=O)O)C(=O)OC2 :: 104
CCOC(=O)N1c2ccc(C(F)(F)F)cc2[C@@H](N(Cc2cc(C(F)(F)F)cc(C(F)(F)F)c2)C(=O)OC)C[C@H]1CC :: 82.9
Clc1ccc(COC(Cn2ccnc2)c2ccc(Cl)cc2Cl)cc1 (stereo not drawn) :: 114
CCCc1nn(C)c2c(O)nc(-c3cc(S(=O)(=O)N4CCN(C)CC4)ccc3OCC)nc12 :: 87.4
CCOC(=O)[C@@]1(CCCCCCOc2ccc(Cl)cc2)CO1 :: 94.8

Look up and report measured cell viability (BV-173) for the following compound: Cc1noc2c1-c1ccccc1C(c1ccc(Cl)cc1)=N[C@H]2CC(N)=O
92.3

Look up and report measured cell viability (BV-173) for the following compound: Cc1coc2c1C(=O)C(=O)c1c-2ccc2c(C)cccc12
109

Look up and report measured cell viability (BV-173) for the following compound: N[C@](CCCCB(O)O)(CCN1CCCCC1)C(=O)O
141

Look up and report measured cell viability (BV-173) for the following compound: Sc1ncnc2nc[nH]c12
103

Look up and report measured cell viability (BV-173) for the following compound: O=C(c1ccc(OCCN2CCCCC2)cc1)c1c(-c2ccc(O)cc2)sc2cc(O)ccc12
93

Look up and report measured cell viability (BV-173) for the following compound: O=C(O)CCc1ccc(NCc2cccc(Oc3ccccc3)c2)cc1
92.9

Look up and report measured cell viability (BV-173) for the following compound: CCN(CC)CCN(Cc1ccc(-c2ccc(C(F)(F)F)cc2)cc1)C(=O)Cn1c(SCc2ccc(F)cc2)nc(=O)c2c1CCC2
100

Look up and report measured cell viability (BV-173) for the following compound: Cc1ccc(S(=O)(=O)NC2c3ccccc3Oc3ccccc32)cc1
87.1

----------
Tested on: HL-60
ASSAY_REMARKS: cell viability (% survival relative to DMSO control); higher = less cytotoxic
TEST_CONTEXT: 10 µM; 72 h; co-treatment: DMSO vehicle
OBSERVED_PROPERTY: cell viability
Provide the measurement as a number trailed by its unit.

Observe how each entry below is paired with its result.
CC(C(=O)O)C(=O)O [methylmalonate] :: 99%
O=P(O)(O)C(O)(Cn1ccnc1)P(=O)(O)O :: 101%
O=C(Nc1ccccc1)c1cc([N+](=O)[O-])ccc1Cl :: 95.6%

// fetch cell viability given entry O=C(O)c1nn(Cc2ccc(Cl)cc2Cl)c2ccccc12
98.4%

// fetch cell viability given entry C[C@]12CC[C@H](O)CC1=CC[C@@H]1[C@@H]2CC[C@]2(C)C(c3cccnc3)=CC[C@@H]12
105%

// fetch cell viability given entry O=c1c2ccccc2[se]n1-c1ccccc1
95.7%

// fetch cell viability given entry O=C(COc1ccc(C(=O)c2ccccc2)cc1)NC1CCN(Cc2ccccc2)CC1
105%

// fetch cell viability given entry Sc1ncnc2nc[nH]c12
35.1%

// fetch cell viability given entry O=C1Oc2ccccc2C(=O)C1CC1C(=O)Oc2ccccc2C1=O (centres undefined)
99.1%

----------
Tested on: HL-60
ASSAY_REMARKS: cell viability (% survival relative to DMSO control); higher = less cytotoxic
TEST_CONTEXT: 0.1 µM; 72 h; co-treatment: GSK2194069 100 nM
# cell viability values compiled below
The reply should contain only the number, in %.

Observe how each entry below is paired with its result.
O=C(O)CCc1ccc(NCc2cccc(Oc3ccccc3)c2)cc1 :: 101
OCCN1CCN(CCCN2c3ccccc3Sc3ccc(Cl)cc32)CC1 :: 95.1
CCOC(=O)N1c2ccc(C(F)(F)F)cc2[C@@H](N(Cc2cc(C(F)(F)F)cc(C(F)(F)F)c2)C(=O)OC)C[C@H]1CC :: 88
C[C@]12CC[C@H](O)CC1=CC[C@@H]1[C@@H]2CC[C@]2(C)C(c3cccnc3)=CC[C@@H]12 :: 86.9
C#Cc1cnc(O)nc1O :: 101

// fetch cell viability given entry O=C(c1ccc(OCCN2CCCCC2)cc1)c1c(-c2ccc(O)cc2)sc2cc(O)ccc12
93.3

// fetch cell viability given entry O=C(O)C(Cl)Cl [Dichloroacetate]
96.3

// fetch cell viability given entry Cc1c2c(=O)n(-c3ccccc3Cl)[nH]c2cc(=O)n1Cc1ccccn1
98.8

// fetch cell viability given entry CCCc1nn(C)c2c(O)nc(-c3cc(S(=O)(=O)N4CCN(C)CC4)ccc3OCC)nc12
123

// fetch cell viability given entry Cc1ccc(S(=O)(=O)NC2c3ccccc3Oc3ccccc32)cc1
96.8

// fetch cell viability given entry CCOC(=O)[C@@]1(CCCCCCOc2ccc(Cl)cc2)CO1
104

----------
Tested on: myeloid leukemia patient primary cells Pat.2
ASSAY_REMARKS: area under dose-response curve (viability, 1 nM-10 uM) (fraction (0-1)); higher = more sensitive
TEST_CONTEXT: 72 h
# area under dose-response curve values compiled below
Just the number, please.

CC12CCC(O)CC1CCC1C2CCC2(C)C(C3=CC(=O)OC3)CCC12O (centres undefined) :: 0.27

Let us examine a further case.
// fetch area under dose-response curve given entry C[C@H]1O[C@@H](O[C@H]2[C@@H](O)C[C@H](O[C@H]3[C@@H](O)C[C@H](O[C@H]4CC[C@@]5(C)[C@H](CC[C@@H]6[C@@H]5C[C@@H](O)[C@]5(C)[C@@H](C7=CC(=O)OC7)CC[C@]65O)C4)O[C@@H]3C)O[C@@H]2C)C[C@H](O)[C@@H]1O
0.346

----------
System: MOLM-13
ASSAY_REMARKS: cell viability (% survival relative to DMSO control, bortezomib = 0%); higher = less cytotoxic
TEST_CONTEXT: 1 nM; 72 h
OBSERVED_PROPERTY: cell viability (%)
The reply should contain only the number, in %.

Observe how each entry below is paired with its result.
CCOC(=O)N1c2ccc(C(F)(F)F)cc2[C@@H](N(Cc2cc(C(F)(F)F)cc(C(F)(F)F)c2)C(=O)OC)C[C@H]1CC :: 95.9
Clc1ccc(COC(Cn2ccnc2)c2ccc(Cl)cc2Cl)cc1 (stereo not given) :: 79.3

// fetch cell viability given entry Cc1ccc(S(=O)(=O)NC2c3ccccc3Oc3ccccc32)cc1
95.3

// fetch cell viability given entry NC(=O)c1ncn([C@@H]2O[C@H](CO)[C@@H](O)[C@H]2O)n1
87.6

// fetch cell viability given entry O=C(c1ccc(OCCN2CCCCC2)cc1)c1c(-c2ccc(O)cc2)sc2cc(O)ccc12
79.1

// fetch cell viability given entry CC(Cc1ccc(O)c(O)c1)C(C)Cc1ccc(O)c(O)c1 (stereo not given)
98.4

// fetch cell viability given entry C[C@H]1O[C@@H](O[C@H]2[C@@H](O)C[C@H](O[C@H]3[C@@H](O)C[C@H](O[C@H]4CC[C@@]5(C)[C@H](CC[C@@H]6[C@@H]5C[C@@H](O)[C@]5(C)[C@@H](C7=CC(=O)OC7)CC[C@]65O)C4)O[C@@H]3C)O[C@@H]2C)C[C@H](O)[C@@H]1O
105

// fetch cell viability given entry C=CCc1ccc2c(c1O)C(=O)c1ccccc1C2=O
94

// fetch cell viability given entry O=C(O)c1cc2sccc2[nH]1 [4H-thieno[3,2-b]pyrrole-5-carboxylic acid]
103

// fetch cell viability given entry Clc1ccc2c(c1Cl)CNCC2
102

// fetch cell viability given entry C[C@]12CC[C@H](O)CC1=CC[C@@H]1[C@@H]2CC[C@]2(C)C(c3cccnc3)=CC[C@@H]12
113

// fetch cell viability given entry CN(C)c1nc(O)c2[nH]cnc2n1 [2-Dimethylamino-6-hydroxypurine]
96.1

// fetch cell viability given entry CC(C)C[C@H](NC(=O)[C@@H](O)[C@H](N)Cc1ccccc1)C(=O)O
110

// fetch cell viability given entry Cc1noc2c1-c1ccccc1C(c1ccc(Cl)cc1)=N[C@H]2CC(N)=O
74.3

// fetch cell viability given entry C1CCc2nnc(C34CC5CC(CC(C5)C3)C4)n2CC1
97.3

----------
System: HL-60
ASSAY_REMARKS: cell viability (% survival relative to DMSO control); higher = less cytotoxic
TEST_CONTEXT: 1 µM; 72 h; co-treatment: DMSO vehicle
# cell viability values compiled below
The reply should contain only the number, in %.

Observe how each entry below is paired with its result.
Cl.OC[C@H]1NC[C@@H](O)[C@@H](O)[C@@H]1O [1-Deoxymannojirimycin hydrochloride] :: 106
C[C@]12CC[C@H](O)CC1=CC[C@@H]1[C@@H]2CC[C@]2(C)C(c3cccnc3)=CC[C@@H]12 [Abiraterone] :: 97.9
Cc1ccc(S(=O)(=O)NC2c3ccccc3Oc3ccccc32)cc1 [AH-7614] :: 103
Cc1noc2c1-c1ccccc1C(c1ccc(Cl)cc1)=N[C@H]2CC(N)=O [CPI-0610] :: 74.8
C#Cc1cnc(O)nc1O [Eniluracil] :: 99.9
OCCN1CCN(CCCN2c3ccccc3Sc3ccc(Cl)cc32)CC1 [Perphenazine] :: 104
C1CCc2nnc(C34CC5CC(CC(C5)C3)C4)n2CC1 [MERCK-544] :: 99.7
[N-]=[N+]=CC(=O)CC[C@H](N)C(=O)O [6-Diazo-5-oxo-L-norleucine] :: 101
COc1c(C)c2c(c(O)c1C/C=C(\C)CCC(=O)O)C(=O)OC2 [Mycophenolic acid] :: 106
O=C1Nc2ccccc2/C1=C\NCCc1ccc(O)c(O)c1 [AC1NZZMF] :: 102

// fetch cell viability given entry CCOC(=O)[C@@]1(CCCCCCOc2ccc(Cl)cc2)CO1 [Etomoxir]
86.5

// fetch cell viability given entry O=C(c1ccc(OCCN2CCCCC2)cc1)c1c(-c2ccc(O)cc2)sc2cc(O)ccc12 [Raloxifene]
97.1

// fetch cell viability given entry O=C(O)c1cc2sccc2[nH]1 [4H-thieno[3,2-b]pyrrole-5-carboxylic acid]
97.5
